Below is a list of entries, each paired with its recorded Percent Effect value.
# Test target: Arginase-2, mitochondrial (Homo sapiens)
# Assay protocol: in vitro enzyme assay to detect the production of urea directly proportional to the activity of Arginase II; further: in the data most compounds retested in dose-response had high values
# Type: functional
# Parameters: scale not given: direction of the effect not stated beside the values
# Measurement parameters: 33.3 µM
Measurement label: Percent Effect (%)

INSERT INTO measurements (compound, test_target, unit_string, recorded_result) VALUES
  ('CSCc1cccc(S(=O)(=O)NCCCO)c1', 'Arginase-2, mitochondrial (Homo sapiens)', '%', -20.7),
  ('CCOc1ncccc1NC(=O)c1sccc1C', 'Arginase-2, mitochondrial (Homo sapiens)', '%', 2.21),
  ('Cc1ccc(CC(=O)N2CCCC(c3nc(C)cs3)C2)cn1 (stereo unspecified)', 'Arginase-2, mitochondrial (Homo sapiens)', '%', -0.554),
  ('O=S(=O)(C1CC1)N1CCO[C@H]2[C@H](OCCN3CCCC3)CC[C@@H]21', 'Arginase-2, mitochondrial (Homo sapiens)', '%', -62.2),
  ('Cc1cncc(C(=O)N2CCC(Cn3cc(-c4ccsc4)nn3)CC2)c1', 'Arginase-2, mitochondrial (Homo sapiens)', '%', -0.476),
  ('CC1=N[C@@]2(CC[C@@H]3CN(S(=O)(=O)CC(C)C)C[C@@H]32)C(=O)N1CC(C)C', 'Arginase-2, mitochondrial (Homo sapiens)', '%', 2.23);

----------
# Test target: Tyrosyl-tRNA synthetase, putative (Trypanosoma cruzi (strain CL Brener)) (UniProt Q4DSP6)
# Sequence (Q4DSP6 as listed by the source): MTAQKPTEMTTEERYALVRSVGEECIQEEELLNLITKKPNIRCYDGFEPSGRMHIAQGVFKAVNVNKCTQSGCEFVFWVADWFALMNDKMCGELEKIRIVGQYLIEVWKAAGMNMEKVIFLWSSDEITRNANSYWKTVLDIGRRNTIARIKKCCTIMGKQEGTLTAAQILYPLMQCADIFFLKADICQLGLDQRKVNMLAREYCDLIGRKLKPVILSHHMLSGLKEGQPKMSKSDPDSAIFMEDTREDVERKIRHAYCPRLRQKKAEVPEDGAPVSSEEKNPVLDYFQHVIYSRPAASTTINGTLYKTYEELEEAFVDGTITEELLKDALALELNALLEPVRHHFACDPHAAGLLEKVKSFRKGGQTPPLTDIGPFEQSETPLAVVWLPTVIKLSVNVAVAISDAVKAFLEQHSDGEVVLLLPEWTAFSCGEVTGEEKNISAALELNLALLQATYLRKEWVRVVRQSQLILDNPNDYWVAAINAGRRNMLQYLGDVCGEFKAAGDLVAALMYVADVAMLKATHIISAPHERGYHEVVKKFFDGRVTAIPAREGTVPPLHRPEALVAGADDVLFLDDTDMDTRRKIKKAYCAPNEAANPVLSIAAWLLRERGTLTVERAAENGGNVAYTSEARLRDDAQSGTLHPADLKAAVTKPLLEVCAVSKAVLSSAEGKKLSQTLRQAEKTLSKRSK
# Assay protocol: Trypanosoma cruzi tyrosyl tRNA synthetase (TcYRS) SOP
# Type: functional
# Design: scale not given: direction of the effect not stated beside the values
# Measurement parameters: 30 µM
// label = 1 if Percent Effect is not less than 10%, otherwise -1

INSERT INTO measurements (compound, category_label) VALUES
  ('Cc1c(C2CCCN(C(=O)Cc3ccccn3)C2)n2c(nc1=O)CCC2 (stereo unspecified)', -1),
  ('CN(C)C(=O)c1ccc2c(c1)N(C)C(CC(=O)NCCC(C)(C)C)CO2 (stereo unspecified)', 1),
  ('CCc1cc(C)c(C(=O)N2CCCC2CC(=O)c2cnn(C)c2)o1 (stereo unspecified)', -1),
  ('COc1ccccc1CN(C)c1nccc(-c2cn(C)nc2C)n1', 1),
  ('CC(NC(=O)c1cc(-c2cccc(Cl)c2)no1)C(=O)N1CCCC1 (stereo unspecified)', -1),
  ('COc1ccc(-c2nc(CN3CC(n4cc(C)cn4)C3)no2)cc1', 1),
  ('CCc1nc(C2CCCN2Cc2nc(CCOC)no2)no1 (stereo unspecified)', 1),
  ('C=Cn1ncc(CN2C[C@@H]3CCCN3C[C@@H]2Cc2ccccc2)c1C', 1),
  ('O=C(Cn1nc2c(cc1=O)CCCC2)N[C@@H](C(=O)O)c1ccccc1', 1),
  ('CNC(=O)[C@@]12CCO[C@@H]1CCN(S(=O)(=O)c1cccc(C)c1)C2', 1),
  ('O=C1CC(c2cccnc2)c2c(c(C(=O)O)cn2-c2ccccc2)N1 (stereo unspecified)', 1);

----------
# Test target: AMP-activated protein kinase, AMPK (Homo sapiens) (UniProt P54646+O43741+P54619+Q9UGJ0+Q9Y478+Q13131+Q9UGI9)
# Assay protocol: AMP-dependent Kinase enzyme assay. An in vitro enzyme assay that detects ADP turnover that is directly proportional to AMPK activity. This uses naive AMPK that is activated during the assay with MK-8722
# Format: functional
# Set-up: scale not given: direction of the effect not stated beside the values
# Measurement parameters: 30 µM
Listed next: entries and their corresponding Percent Effect.
Measurement label: Percent Effect (%)

INSERT INTO assay_data (compound, recorded_result) VALUES
  ('c1nc2c(c(C3CC3)n1)CCN(Cc1ccc3c(c1)OCO3)CC2', 3.53),
  ('CCc1nc(C2CCCN(C(=O)c3cccc4cn[nH]c34)C2)no1 (stereo unspecified)', 1.19),
  ('CC(C)NC(=O)c1nnn(-c2cccc(C(F)(F)F)c2)c1C1CC1', -3.96),
  ('O=C(NCCc1c[nH]cn1)c1ccc2c(c1)C(=O)N(C1CC1)C2=O', 5.05),
  ('COc1ccc(OC)c(NC(=O)c2nc3ccccc3n(C)c2=O)c1', 3.42),
  ('Cc1ccc(N2CC[C@H](OCC3CC3)[C@@H]2Cc2cnn(C)c2)nn1', -7.52),
  ('O=C(N1CCCO1)[C@@]12CCO[C@@H]1CCN(Cc1ccccc1)C2', -2.01),
  ('COc1cccc(C2CCCN2C(=O)c2cc3c([nH]c2=O)CCC3)c1 (stereo unspecified)', 0.0672),
  ('NCC1CN(c2nc(-c3ccccc3)nc3c2CCNCC3)CCO1 (stereo unspecified)', -7.79),
  ('COc1ccccc1OCc1cc(C(=O)N2CCN[C@H](C)C2)n[nH]1', -4.98),
  ('COc1c(CNC2CCc3c(Cl)cccc32)c(C)nn1C (stereo unspecified)', -13.3);
